# EC50 annotations
Test system: HIV-1 (H9IIIB strain)
assayProtocol: Cell-Based HIV Infection Assay Using a Reporter (MT4-GFP cells)
assayContext: Human immunodeficiency virus 1, inflection point (IP) of viral growth inhibition; MT4-GFP cells infected with HIV-1 H9IIIB; 50% normal human serum; mean of at least two independent experiments; read-out: Cell Based IP (50% NHS)
reportedMetric: EC50 (nM)

[[record]]
compound = "N[C@H](C(=O)Nc1cccc(F)c1CCC1CNC2CCCS(=O)(=O)N1C2)[C@H](CCC1CCCCO1)c1ccc(Cl)cc1 (stereo partly drawn)"
reportedmetric = "EC50"
observedresult = 23

[[record]]
compound = "N[C@H](C(=O)Nc1cccc(F)c1CC[C@H]1CN[C@@H]2CCCS(=O)(=O)N1C2)[C@@H](c1ccc(F)cc1)c1cnc(C(F)(F)F)nc1"
reportedmetric = "EC50"
observedresult = 15

[[record]]
compound = "COC(=O)N[C@H](C(=O)N[C@H]1CCCC[C@@H]1CC[C@H]1CN[C@@H]2CCCS(=O)(=O)N1C2)[C@@]1(c2ccc(Cl)cc2)C[C@@H](C)O[C@@H](C)C1"
reportedmetric = "EC50"
observedresult = 89


---

System: HIV-1 (H9IIIB strain)
assayProtocol: Cell-Based HIV Infection Assay Using a Reporter (MT4-GFP cells)
assayContext: Human immunodeficiency virus 1, inflection point (IP) of viral growth inhibition; MT4-GFP cells infected with HIV-1 H9IIIB; 50% normal human serum; mean of at least two independent experiments; read-out: Cell Based IP (50% NHS)
Mark Y only when EC50 stays strictly below 60 nM. Values equal to the cut-off are N.

[[record]]
compound = "Cn1nc(C(F)(F)F)cc1[C@H](c1ccc(Cl)c(F)c1)[C@H](N)C(=O)Nc1cncc(F)c1CC[C@H]1CN[C@@H]2CCCS(=O)(=O)N1C2 [Example 268]"
experimentaltarget = "HIV-1 (H9IIIB strain)"
qualitativelabel = "Y"

[[record]]
compound = "CC1(C)C[C@@H]([C@H](c2ccc(F)cc2)[C@H](N)C(=O)N[C@H]2CCCC[C@@H]2CC[C@H]2CN[C@@H]3CCCS(=O)(=O)N2C3)CCO1 [Example 148]"
experimentaltarget = "HIV-1 (H9IIIB strain)"
qualitativelabel = "N"

[[record]]
compound = "C[C@@H]1CC([C@H](c2ccc(F)cc2)[C@H](N)C(=O)Nc2cc(F)ccc2CC[C@H]2CN[C@@H]3CCCS(=O)(=O)N2C3)C[C@H](C)O1 (stereo partly shown) [Example 188]"
experimentaltarget = "HIV-1 (H9IIIB strain)"
qualitativelabel = "Y"

[[record]]
compound = "COC(=O)N[C@H](C(=O)Nc1cccc(F)c1CCC1CNC2CCCS(=O)(=O)N1C2)[C@H](c1ccc(F)cc1)C1CC(F)(F)C1 (stereo partly shown) [Example 65]"
experimentaltarget = "HIV-1 (H9IIIB strain)"
qualitativelabel = "Y"

[[record]]
compound = "COC(=O)N[C@H](C(=O)Nc1cccc(F)c1CC[C@H]1CN[C@@H]2CCCCS(=O)(=O)N1C2)[C@@H](c1ccc(F)cc1)c1cc(F)cc(F)c1 [Example 277]"
experimentaltarget = "HIV-1 (H9IIIB strain)"
qualitativelabel = "Y"

[[record]]
compound = "C[C@@H]1C[C@H]([C@H](c2ccc(Cl)cc2)[C@H](N)C(=O)Nc2cccc(F)c2CC[C@H]2CN[C@@H]3CCCS(=O)(=O)N2C3)C[C@H](C)O1 [Example 121]"
experimentaltarget = "HIV-1 (H9IIIB strain)"
qualitativelabel = "Y"

[[record]]
compound = "Cn1nc([C@H](c2ccc(Cl)c(F)c2)[C@H](N)C(=O)Nc2cncc(F)c2CC[C@H]2CN[C@@H]3CCCS(=O)(=O)N2C3)cc1C(F)(F)F [Example 266]"
experimentaltarget = "HIV-1 (H9IIIB strain)"
qualitativelabel = "Y"

[[record]]
compound = "COC(=O)N[C@H](C(=O)Nc1cccc(F)c1CCC1CNC2CCCS(=O)(=O)N1C2)[C@H](c1cncc(C(F)(F)F)c1)c1ccc(Cl)c(F)c1 (stereo partly shown) [Example 19]"
experimentaltarget = "HIV-1 (H9IIIB strain)"
qualitativelabel = "Y"

[[record]]
compound = "COC(=O)N[C@H](C(=O)N[C@H]1CCCC[C@@H]1CC[C@H]1CN[C@@H]2CCCS(=O)(=O)N1C2)[C@@H](c1ccc(Cl)cc1)C(C)C [Example 96]"
experimentaltarget = "HIV-1 (H9IIIB strain)"
qualitativelabel = "N"

[[record]]
compound = "N[C@H](C(=O)N[C@H]1CCCC[C@@H]1CC[C@H]1CN[C@@H]2CCCS(=O)(=O)N1C2)[C@@H](c1ccc(Cl)cc1)c1cc(F)cc(F)c1 [Example 160]"
experimentaltarget = "HIV-1 (H9IIIB strain)"
qualitativelabel = "Y"

[[record]]
compound = "COC(=O)N[C@H](C(=O)Nc1c(F)ccc(F)c1CC[C@H]1CN[C@@H]2CCCS(=O)(=O)N1C2)[C@@H](c1ccc(Cl)cc1)[C@H]1CCOC(C)(C)C1 [Example 200]"
experimentaltarget = "HIV-1 (H9IIIB strain)"
qualitativelabel = "Y"

[[record]]
compound = "CO[C@H]1CC[C@](c2ccc(F)cc2)([C@H](N)C(=O)Nc2cncc(F)c2CC[C@H]2CN[C@@H]3CCCS(=O)(=O)N2C3)CC1 [Example 235]"
experimentaltarget = "HIV-1 (H9IIIB strain)"
qualitativelabel = "N"

[[record]]
compound = "Cn1nc(C(F)(F)F)cc1[C@H](c1ccc(Cl)cc1)[C@H](N)C(=O)Nc1cncc(F)c1CC[C@H]1CN[C@@H]2CCCS(=O)(=O)N1C2 [Example 262]"
experimentaltarget = "HIV-1 (H9IIIB strain)"
qualitativelabel = "Y"

[[record]]
compound = "CC1(C)C[C@@H]([C@H](c2ccc(Cl)cc2)[C@H](N)C(=O)Nc2cncc(F)c2CC[C@H]2CN[C@@H]3CCCS(=O)(=O)N2C3)CCO1 [Example 215]"
experimentaltarget = "HIV-1 (H9IIIB strain)"
qualitativelabel = "Y"

[[record]]
compound = "N[C@H](C(=O)Nc1cccc(F)c1CC[C@H]1CNC2CCCS(=O)(=O)N1C2)C1(c2ccc(F)cc2)CCC(F)(F)CC1 (stereo partly shown) [Example 39]"
experimentaltarget = "HIV-1 (H9IIIB strain)"
qualitativelabel = "N"

[[record]]
compound = "COC(=O)N[C@H](C(=O)N[C@H]1CCCC[C@@H]1CC[C@H]1CN[C@@H]2CCCS(=O)(=O)N1C2)C(c1ccc(F)cc1)c1ccc(F)cc1 [Example 92]"
experimentaltarget = "HIV-1 (H9IIIB strain)"
qualitativelabel = "Y"

[[record]]
compound = "CO[C@H]1CC[C@H]([C@H](c2ccc(Cl)cc2)[C@H](N)C(=O)Nc2cncc(F)c2CC[C@H]2CN[C@@H]3CCCS(=O)(=O)N2C3)CC1 [Example 239]"
experimentaltarget = "HIV-1 (H9IIIB strain)"
qualitativelabel = "Y"

[[record]]
compound = "C[C@@H]1CC([C@H](c2ccc(Cl)c(F)c2)[C@H](N)C(=O)Nc2cncc(F)c2CC[C@H]2CN[C@@H]3CCCS(=O)(=O)N2C3)C[C@H](C)O1 (stereo partly shown) [Example 245]"
experimentaltarget = "HIV-1 (H9IIIB strain)"
qualitativelabel = "Y"

[[record]]
compound = "CCCN[C@H](C(=O)N[C@H]1CCC[C@@H]1CC[C@H]1CN[C@@H]2CCCS(=O)(=O)N1C2)[C@@H](c1ccc(Cl)cc1)C1CCOC(C)(C)C1 (stereo partly shown) [Example 177]"
experimentaltarget = "HIV-1 (H9IIIB strain)"
qualitativelabel = "N"

[[record]]
compound = "CC1(C)CC([C@H](c2ccc(Cl)cc2)[C@H](NCCCC(F)(F)F)C(=O)N[C@H]2CCC[C@@H]2CC[C@H]2CN[C@@H]3CCCS(=O)(=O)N2C3)CCO1 (stereo partly shown) [Example 184]"
experimentaltarget = "HIV-1 (H9IIIB strain)"
qualitativelabel = "N"

[[record]]
compound = "N[C@H](C(=O)Nc1cccc(F)c1CCC1CNC2CCCS(=O)(=O)N1C2)[C@@H](c1ccc(Cl)cc1)C1CCOC(CC(F)(F)F)C1 (stereo partly shown) [Example 163]"
experimentaltarget = "HIV-1 (H9IIIB strain)"
qualitativelabel = "Y"

[[record]]
compound = "COC(=O)N[C@H](C(=O)Nc1cccc(F)c1CC[C@H]1CN[C@@H]2CCCS(=O)(=O)N1C2)[C@@H](c1ccc(F)cc1)[C@H]1CC[C@H](OC)CC1 [Example 117]"
experimentaltarget = "HIV-1 (H9IIIB strain)"
qualitativelabel = "Y"


---

Tested on: HIV-1 (H9IIIB strain)
assayProtocol: Cell-Based HIV Infection Assay Using a Reporter (MT4-GFP cells)
assayContext: Human immunodeficiency virus 1, inflection point (IP) of viral growth inhibition; MT4-GFP cells infected with HIV-1 H9IIIB; 50% normal human serum; mean of at least two independent experiments; read-out: Cell Based IP (50% NHS)
reportedMetric: EC50 (nM)

[[record]]
molecule = "CC1(C)C[C@@H]([C@H](c2ccc(Cl)cc2)[C@H](N)C(=O)Nc2c(F)ccc(F)c2CC[C@H]2CN[C@@H]3CCCS(=O)(=O)N2C3)CCO1"
reportedmetric = "EC50"
observedresult = 19

[[record]]
molecule = "COC(=O)N[C@H](C(=O)Nc1cc(F)cc(F)c1CC[C@H]1CN[C@@H]2CCCS(=O)(=O)N1C2)[C@@H](c1ccc(Cl)cc1)C1CCOCC1"
reportedmetric = "EC50"
observedresult = 21

[[record]]
molecule = "C[C@@H]1C[C@H]([C@H](c2ccc(Cl)cc2)[C@H](N)C(=O)Nc2cncc(F)c2CC[C@H]2CN[C@@H]3CCCS(=O)(=O)N2C3)C[C@H](C)O1"
reportedmetric = "EC50"
observedresult = 6.3

[[record]]
molecule = "COC(=O)N[C@H](C(=O)Nc1cccc(F)c1CC[C@H]1CN[C@@H]2CCC(C)(C)S(=O)(=O)N1C2)[C@@H](c1ccc(F)cc1)[C@H]1C[C@@H](C)O[C@@H](C)C1"
reportedmetric = "EC50"
observedresult = 32

[[record]]
molecule = "CC1(C)CC([C@H](c2ccc(F)cc2)[C@H](N)C(=O)Nc2ccc(F)c(F)c2CC[C@H]2CN[C@@H]3CCCS(=O)(=O)N2C3)CCO1 (some centres unmarked)"
reportedmetric = "EC50"
observedresult = 31

[[record]]
molecule = "CC(F)(F)c1ccc([C@H](c2ccc(Cl)cc2)[C@H](N)C(=O)Nc2cccc(F)c2CC[C@H]2CN[C@@H]3CCCS(=O)(=O)N2C3)cn1"
reportedmetric = "EC50"
observedresult = 5.9

[[record]]
molecule = "COC(=O)N[C@H](C(=O)Nc1cccc(F)c1CCC1CNC2CCCS(=O)(=O)N1C2)C(c1ccc(OC)nc1)c1ccc(F)c(F)c1 (stereo in doubt)"
reportedmetric = "EC50"
observedresult = 12

[[record]]
molecule = "N[C@H](C(=O)Nc1cncc(F)c1CC[C@H]1CN[C@@H]2CCCS(=O)(=O)N1C2)[C@@H](c1ccc(Cl)cc1)C1CCC(F)(F)CC1"
reportedmetric = "EC50"
observedresult = 7.3

[[record]]
molecule = "CCOC(=O)N1CCC(c2ccc(Cl)cc2)([C@H](NC(=O)OC)C(=O)Nc2cccc(F)c2CC[C@H]2CN[C@@H]3CCCS(=O)(=O)N2C3)CC1"
reportedmetric = "EC50"
observedresult = 18

[[record]]
molecule = "Cn1nc([C@H](c2ccc(Cl)cc2)[C@H](N)C(=O)Nc2cccc(F)c2CC[C@H]2CN[C@@H]3CCCS(=O)(=O)N2C3)cc1C(F)(F)F"
reportedmetric = "EC50"
observedresult = 4.4

[[record]]
molecule = "COC(=O)N[C@H](C(=O)Nc1cccc(F)c1CCC1CNC2CCCS(=O)(=O)N1C2)[C@@H](c1ccc(Cl)cc1)c1ccnc(OC(C)C)c1 (some centres unmarked)"
reportedmetric = "EC50"
observedresult = 6.7

